- System: NCI-H1651
- Assay info: relative viability (nuclei count vs DMSO), 5 days (fraction); higher = more cells survive
- Condition summary: first compound 0.08 µM
Rule: measured relative viability below 0.7 gets T; anything equal to or greater than 0.7 gets F.

Compound	Class label
Oc1nc(-c2ccc(C(F)(F)F)cc2)nc2c1CSCC2 [XAV939] + CC(C)C[C@H](NC(=O)[C@H](Cc1ccccc1)NC(=O)c1cnccn1)B(O)O [Bortezomib] (partner 0.002 µM)	F
C=C1C(=O)O[C@@H](CCCCCCCC)[C@@H]1C(=O)O [C-75] + CC(C)C[C@H](NC(=O)[C@H](Cc1ccccc1)NC(=O)c1cnccn1)B(O)O [Bortezomib] (partner 0.002 µM)	F
Oc1nc(-c2ccc(C(F)(F)F)cc2)nc2c1CSCC2 [XAV939] + Cc1nc(NC(=O)N2CCC[C@H]2C(N)=O)sc1-c1ccnc(C(C)(C)C(F)(F)F)c1 [Alpelisib] (partner 2 µM)	F
C=C1C(=O)O[C@@H](CCCCCCCC)[C@@H]1C(=O)O [C-75] + CC(=O)c1c(C)c2cnc(Nc3ccc(N4CCNCC4)cn3)nc2n(C2CCCC2)c1=O [Palbociclib] (partner 0.5 µM)	T
Oc1nc(-c2ccc(C(F)(F)F)cc2)nc2c1CSCC2 [XAV939] + CS(=O)(=O)N1CCN(Cc2cc3nc(-c4cccc5[nH]ncc45)nc(N4CCOCC4)c3s2)CC1 [Pictilisib] (partner 1 µM)	T
C=C1C(=O)O[C@@H](CCCCCCCC)[C@@H]1C(=O)O [C-75] + CC(=O)Nc1cccc(-n2c(=O)n(C3CC3)c(=O)c3c(Nc4ccc(I)cc4F)n(C)c(=O)c(C)c32)c1 [Trametinib] (partner 0.02 µM)	F
C=C1C(=O)O[C@@H](CCCCCCCC)[C@@H]1C(=O)O [C-75] + O=C(CCCCCCC(=O)Nc1ccccc1)NO [Vorinostat] (partner 1 µM)	T
C=C1C(=O)O[C@@H](CCCCCCCC)[C@@H]1C(=O)O [C-75] + Nc1ncn([C@H]2C[C@H](O)[C@@H](CO)O2)c(=O)n1 [Decitabine] (partner 2 µM)	T
Oc1nc(-c2ccc(C(F)(F)F)cc2)nc2c1CSCC2 [XAV939] + CC(=O)c1c(C)c2cnc(Nc3ccc(N4CCNCC4)cn3)nc2n(C2CCCC2)c1=O [Palbociclib] (partner 0.5 µM)	T
C=C1C(=O)O[C@@H](CCCCCCCC)[C@@H]1C(=O)O [C-75] + C[C@@H](Oc1cc(-c2cnn(C3CCNCC3)c2)cnc1N)c1c(Cl)ccc(F)c1Cl [Crizotinib] (partner 1 µM)	F
Oc1nc(-c2ccc(C(F)(F)F)cc2)nc2c1CSCC2 [XAV939] + CC1(C)CCC(c2ccc(Cl)cc2)=C(CN2CCN(c3ccc(C(=O)NS(=O)(=O)c4ccc(N[C@H](CCN5CCOCC5)CSc5ccccc5)c(S(=O)(=O)C(F)(F)F)c4)cc3)CC2)C1 [Navitoclax] (partner 0.5 µM)	F
C=C1C(=O)O[C@@H](CCCCCCCC)[C@@H]1C(=O)O [C-75] + O=C(c1cc(Cc2n[nH]c(=O)c3ccccc23)ccc1F)N1CCN(C(=O)C2CC2)CC1 [Olaparib] (partner 8 µM)	T
Oc1nc(-c2ccc(C(F)(F)F)cc2)nc2c1CSCC2 [XAV939] + CCNC(=O)c1noc(-c2cc(C(C)C)c(O)cc2O)c1-c1ccc(CN2CCOCC2)cc1 [Luminespib] (partner 0.01 µM)	F

This collection of values is drawn from the supplement of paper PMC10307832.
